- measured target: glucokinase (GK) (Homo sapiens, UniProt P35557)
- Construct: I.D. No. 1 corresponds to residues 12-465 of glucokinase
- Sequence (P35557 with tags, fused parts or gaps isoform P35557-2): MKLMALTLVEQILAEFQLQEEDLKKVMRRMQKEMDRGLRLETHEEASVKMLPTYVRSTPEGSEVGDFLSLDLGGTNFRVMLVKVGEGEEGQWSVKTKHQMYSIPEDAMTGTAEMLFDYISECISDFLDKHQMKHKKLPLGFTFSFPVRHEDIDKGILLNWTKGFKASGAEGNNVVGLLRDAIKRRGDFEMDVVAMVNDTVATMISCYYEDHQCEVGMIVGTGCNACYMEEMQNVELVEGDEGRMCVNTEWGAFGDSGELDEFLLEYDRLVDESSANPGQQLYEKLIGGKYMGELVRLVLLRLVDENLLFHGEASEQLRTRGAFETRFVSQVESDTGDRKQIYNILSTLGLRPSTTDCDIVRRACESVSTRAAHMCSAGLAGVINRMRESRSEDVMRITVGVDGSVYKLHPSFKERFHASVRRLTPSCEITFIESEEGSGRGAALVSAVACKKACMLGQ
- assay overview: enzymatic glucokinase activity assay (ATP consumption, KinaseGlo luminescence)
- stated conditions: recombinant GK residues 12-465; 5 μM ATP, 5 mM Glucose; Kact = concentration that displays 50% of the maximal increase in GK activity; read-out: pKact
pEC50: −log10 of the molar value.
I'd be grateful if you could share measured pEC50 for these entries.

Take a look at these entries with their results.
[[record]]
molecule = "Cc1cc(S(=O)(=O)C2CCCC2)cc(=O)n1C(CC1CCOCC1)C(=O)Nc1cnccn1 (stereo not shown) [Example 177]"
reported_endpoint = "pEC50"
endpoint_value = "< 4.80"

[[record]]
molecule = "Cc1cc(S(=O)(=O)C2CCCC2)cc(=O)n1C(Cc1ccco1)C(=O)Nc1nccs1 (stereo not shown) [Example 21]"
reported_endpoint = "pEC50"
endpoint_value = "< 4.80"

[[record]]
molecule = "Cc1cc(S(=O)(=O)C2CCCC2)cc(=O)n1[C@H](CC1CCOCC1)C(=O)Nc1ncc(F)s1 [Example 39]"
reported_endpoint = "pEC50"
endpoint_value = "< 4.80"


Parameter requested: pEC50. Apply to each item below.
1. Cc1cc(S(=O)(=O)Cc2ccco2)cc(=O)n1C(CC1CCOCC1)C(=O)Nc1ncc(Cc2ccc(F)cc2)s1 (stereo not shown) [Example 144]
2. CNS(=O)(=O)c1cccc(-c2cc(C)n([C@@H](CC3CCCCC3)C(=O)Nc3nccs3)c(=O)c2)c1 [Example 114]
3. COc1ccc(CC(C(=O)Nc2nccs2)n2c(C)cc(S(=O)(=O)C3CCCC3)cc2=O)cc1 (stereo not shown) [Example 27]
4. Cc1cc(S(=O)(=O)C2CC2)c(N)c(=O)n1[C@@H](CC1CCCC1)C(=O)Nc1ncc(F)s1 [Example 155]

["4.80 to 5.80", "4.80 to 5.80", "< 4.80", "4.80 to 5.80"]

* * *

- measured target: glucokinase (GK) (Homo sapiens)
- Construct: I.D. No. 1 corresponds to residues 12-465 of glucokinase
- assay overview: enzymatic glucokinase activity assay (ATP consumption, KinaseGlo luminescence)
- stated conditions: recombinant GK residues 12-465; 5 μM ATP, 5 mM Glucose; Kact = concentration that displays 50% of the maximal increase in GK activity; read-out: pKact
pEC50: −log10 of the molar value.
I'd be grateful if you could share measured pEC50 for these entries.

Take a look at these entries with their results.
[[record]]
compound = "CC(C)(O)c1cnc(NC(=O)C(CC2CCOCC2)n2ccc(S(=O)(=O)C3CC3)cc2=O)s1 (centres unmarked)"
reported_endpoint = "pEC50"
endpoint_value = "< 4.80"

[[record]]
compound = "CS(=O)(=O)c1ccn(C(Cc2cc(F)ccc2Cl)C(=O)Nc2ncc(Cl)s2)c(=O)c1 (centres unmarked)"
reported_endpoint = "pEC50"
endpoint_value = "< 4.80"


Parameter requested: pEC50. Apply to each item below.
1. O=C(Nc1ncc(Cl)s1)[C@H](CC1CCOCC1)n1ccc(S(=O)(=O)C2CCCC2)cc1=O
2. Cc1cc(S(=O)(=O)C2CCOCC2)cc(=O)n1C(CC1CCCC1)C(=O)Nc1ncc(Cl)s1 (centres unmarked)
3. O=C(Nc1nc2ccc(Cl)cc2s1)C(CC1CCOCC1)n1ccc(S(=O)(=O)C2CC2)cc1=O (centres unmarked)

> 5.80
4.80 to 5.80
4.80 to 5.80

Parameter requested: pEC50. Apply to each item below.
1. Cc1cc(S(=O)(=O)C2CCCC2)cc(=O)n1[C@@H](CC1CCOCC1)C(=O)Nc1ccc(Cl)cn1
2. O=C(Nc1ncc(Cc2ccc(F)cc2)s1)C(CC1CCOCC1)n1ccc(S(=O)(=O)C2CC2)cc1=O (centres unmarked)
3. Cc1cc(S(=O)(=O)C2CCCC2)cc(=O)n1C(CC1CCCC1)C(=O)Nc1nccs1 (centres unmarked)

["> 5.80", "4.80 to 5.80", "> 5.80"]
